Reference source: the supplement of paper PMC10307832

Tested on: COR-L23
experiment_description: relative viability (nuclei count vs DMSO), 5 days (fraction); higher = more cells survive
setup_conditions: first compound 0.0002 µM
Measured relative viability by item
Keep it simple and answer with nothing but the number.

Here are 3 compounds together with their reported answers.
>  <compound>
CC(=O)O[C@@]12CO[C@@H]1C[C@H](O)[C@@]1(C)C(=O)[C@H](O)C3=C(C)[C@@H](OC(=O)[C@H](O)[C@@H](NC(=O)OC(C)(C)C)c4ccccc4)C[C@@](O)([C@@H](OC(=O)c4ccccc4)[C@H]21)C3(C)C [Docetaxel] + CC(=O)Nc1cccc(-n2c(=O)n(C3CC3)c(=O)c3c(Nc4ccc(I)cc4F)n(C)c(=O)c(C)c32)c1 [Trametinib] (partner 0.02 µM)

>  <relative viability>
0.528

$$$$
>  <compound>
CC(=O)O[C@@]12CO[C@@H]1C[C@H](O)[C@@]1(C)C(=O)[C@H](O)C3=C(C)[C@@H](OC(=O)[C@H](O)[C@@H](NC(=O)OC(C)(C)C)c4ccccc4)C[C@@](O)([C@@H](OC(=O)c4ccccc4)[C@H]21)C3(C)C [Docetaxel] + CS(=O)(=O)CCNCc1ccc(-c2ccc3ncnc(Nc4ccc(OCc5cccc(F)c5)c(Cl)c4)c3c2)o1 [Lapatinib] (partner 2 µM)

>  <relative viability>
0.993

$$$$
>  <compound>
CC(=O)O[C@@]12CO[C@@H]1C[C@H](O)[C@@]1(C)C(=O)[C@H](O)C3=C(C)[C@@H](OC(=O)[C@H](O)[C@@H](NC(=O)OC(C)(C)C)c4ccccc4)C[C@@](O)([C@@H](OC(=O)c4ccccc4)[C@H]21)C3(C)C [Docetaxel] + C[C@]1(O)C[C@@H](c2nc(-c3ccc4ccc(-c5ccccc5)nc4c3)c3c(N)nccn32)C1 [Linsitinib] (partner 1 µM)

>  <relative viability>
0.813

$$$$

Shift focus to the following entry.
# input Find the measured relative viability: item CC(=O)O[C@@]12CO[C@@H]1C[C@H](O)[C@@]1(C)C(=O)[C@H](O)C3=C(C)[C@@H](OC(=O)[C@H](O)[C@@H](NC(=O)OC(C)(C)C)c4ccccc4)C[C@@](O)([C@@H](OC(=O)c4ccccc4)[C@H]21)C3(C)C [Docetaxel] + Nc1ncn([C@H]2C[C@H](O)[C@@H](CO)O2)c(=O)n1 [Decitabine] (partner 2 µM) , target or system COR-L23.
# output 0.39

* * *

Test system: UMC-11
experiment_description: relative viability (nuclei count vs DMSO), 5 days (fraction); higher = more cells survive
setup_conditions: first compound 0.01581 µM
observable: relative viability
Please reply with the value in numeric form only.

The cases that follow already have their relative viability on record.
>  <molecule>
COc1cc2nccc(Oc3ccc(NC(=O)Nc4cc(C)on4)c(Cl)c3)c2cc1OC [Tivozanib] + CC1(C)CCC(c2ccc(Cl)cc2)=C(CN2CCN(c3ccc(C(=O)NS(=O)(=O)c4ccc(N[C@H](CCN5CCOCC5)CSc5ccccc5)c(S(=O)(=O)C(F)(F)F)c4)cc3)CC2)C1 [Navitoclax] (partner 0.5 µM)

>  <test_system>
UMC-11

>  <relative viability>
0.322

$$$$
>  <molecule>
Nc1ccn([C@@H]2O[C@H](CO)[C@@H](O)[C@@H]2O)c(=O)n1 [Cytarabine] + O=C(CCCCCCC(=O)Nc1ccccc1)NO [Vorinostat] (partner 1 µM)

>  <test_system>
UMC-11

>  <relative viability>
0.308

$$$$
>  <molecule>
Nc1ccn([C@@H]2O[C@H](CO)[C@@H](O)[C@@H]2O)c(=O)n1 [Cytarabine] + C[C@]1(O)C[C@@H](c2nc(-c3ccc4ccc(-c5ccccc5)nc4c3)c3c(N)nccn32)C1 [Linsitinib] (partner 1 µM)

>  <test_system>
UMC-11

>  <relative viability>
0.637

$$$$

Turning now to a further molecule:
# input Could you share which relative viability value was measured for Nc1ccn([C@@H]2O[C@H](CO)[C@@H](O)[C@@H]2O)c(=O)n1 [Cytarabine] + CCNC(=O)c1noc(-c2cc(C(C)C)c(O)cc2O)c1-c1ccc(CN2CCOCC2)cc1 [Luminespib] (partner 0.01 µM) ?
# output 0.591
